experiment: label from the status in PepcDB records
Property Measured: protein production

Worked set:
{"Item Sequence": "MVVRSLSVVGLGPAGAGAAAAASRLGVKPVIYEAMEKPGLKPCGRGLPIVDGGLPVSIPRDSILRRIRGARMYVDGEFLFEMKGFLDGYIVDKTVMLEAIAVEAGGEIHYRAKYKPGSSTVRLPGGGEARVEQGVFAGGHPYYGGAKIAAVQWIMKTGPRSDPVGDMLEIHFDTELLGYAYIFPKEEGFIEVGIGGFATPRELRERLESFIHKRSDLRELERVKLEGARIAIGGLDLGVVDGLVKAGEAAGFVLPLTGEGIRPSLISGYEAASALIEGGSPLEKLRSLPIARAVSMQKRILDLVAGMSVEERRSLLKSLTPRAHAEIALGMFRKHILLKELARSPRALSLLGLVTRLI", "Observed Value": "failed"}
{"Item Sequence": "MREEELNTEKVVAAIANPVENEVRKVWEDVVEKIEQRVAVIEQASHKLLQNKVSEEILSKAKVEAHKLAGSLGMFGSDEGSQIAQEIESLLDNGKKLKASGGKHLGQVVEALHQELENLKSGLEHHHHHH", "Observed Value": "not failed"}
{"Item Sequence": "MRGETELKQERSIALPLAISIIAISFAAVFVKMSSAPSSILSMYRLWIIVLLMLPIVWKKREEFSKIQIKDWGFLIGSGFFLALHFLLWFESLKHTTVASSTIILALQPIVSLVGGFFLFKERTTYSAIATMGIAILGVVCIGWGDLGLSEQAIYGDILSFLSVIAVVGYLFIGQTTVKKVSHWIYSFTVFAFAGIFMGIYNIVLQVPFTGYTKWDWTVFLLLAVVPTVSHVINNWLLNYVNATTISMSILGEPVGASILAFFLLGERLNAMQMIGSILVLFGVSVFLLQQQKRTAKNVVNEPVYTQEL", "Observed Value": "failed"}
{"Item Sequence": "MAIMASRKHLKRFKSPVHWPIHPKEYKWTVKPSPGPHAIENSLPLMIIVRDILKVADNAREARKIINSGEVLVDGRPRKNYKFPVGFMDVVSIPRTGDVYRVLPDERGRLVLHPIDEENAGFKLCKIVNKTTIKGGRTQLNLHDGRNYLSDDEFRVGDVVKLSIPEQEILERIPFEKDSLGLVTGGRHTGEIGKIKKINITRSSMPNTAVIETGAGKTFLTLKDYVFVIGKDESVISLPGGKLEHHHHHH", "Observed Value": "failed"}

For each of the items listed, what is its protein production?
1. MSSLKGKRIGFGLTGSHCTYEAVFPQIEELVNEGAEVRPVVTFNVKSTNTRFGEGAEWVKKIEDLTGYEAIDSIVKAEPLGPKLPLDCMVIAPLTGNSMSKLANAMTDSPVLMAAKATIRNNRPVVLGISTNDALGLNGTNLMRLMSTKNIFFIPFGQDDPFKKPNSMVAKMDLLPQTIEKALMHQQLQPILVENYQGND
2. MLSTNKFAVLAFATFVAFQAPAHAEDAVVAKVGNLEIHQSELDLAVANLDPQLAQLPDDQKKVAALSAAIDVKLLAAGATTEKLEQTDEFKKRMQYLTDRELHNAYFKKHVVDTVTPDEIKARYDKEVAALPKQEEVHARHILVKTEDEAKDIIKQLDAGKDFAELAKEKSTDPNKSEGGDLGYFSRGRMVKEFEDAAFALEKGAYSKTPVKTDFGYHVIKVEDKRDAPPPPFDQVQDQVRQLVMRDKYLALLNQAKSSAKIEISDETLRKGYDEANKQPEPGSEPPQPAPKQ
3. MNMAHTTTSMEIFGSPEQVWQLIGGFNSLPDWLPYIPSSKLTEGGRVRHLANPDGDTIIERLEVFNDKERYYTYSIMNAPFPVTNYLSTIQVKEGTESNTSLVEWSGTFTPVEVSDEEAINLFHGIYSDGLKALQQAFLDLEHHHHHH

1: failed; 2: failed; 3: not failed

---

test: label from the status in PepcDB records
Property Measured: protein production

Worked set:
{"Item Sequence": "MSQMMQMYQQVGPAQFSAMIGQFAPYFASIAPQFVELRPGYAEVTFPKRREVLNHIGTVHAIALCNAAELAAGTMTDASIPAGHRWIPRGMTVEYLAKATGDVRAVADGSQIDWQATGNLVVPVVAYVDDKPVFRAEITMYVSQA", "Property Measured": "protein production", "Observed Value": "not failed"}
{"Item Sequence": "MGLIARLRRWYHLWVWRLRYWWYDTPSGVCAQHWAQGLGVLVFIVQLVRVWVAAALPAPHGAPAQAVYWWVWQLAIAVVAAYVSAALRPKPESVKPQQAQVPTVQDGQAVKHHFGTVWVGDEFILAWKMQGAIPIKTKGAGC", "Property Measured": "protein production", "Observed Value": "failed"}
{"Item Sequence": "MPETMHDNALTQSCTLVTSPELGTMHAMPTYIATKNGEPTAIAIESIAPDGYNGEIKVITGIDNQGKILGTRVLSHQETPGLGDKIDLRVTSWILGFTGKQVTEDNWNSWKVRKDGGDFDQFTGATITPRAVIKAVRNTVNYVNQSRDEILSQPLEHHHHHH", "Property Measured": "protein production", "Observed Value": "not failed"}
{"Item Sequence": "MITNKKCKGCGAFLNDQINTIGYTPKINETKTNLCQRCFKLIHYNKLEKVSTNLNQSIKETINTLNFSNLQIFAVLDILDLEHTIIDELKEYQNKIIFLVNKIDLLPQRYNSELVNENVVKTLINHGFIDPKIIYVSTHSNTSLKKVMDYIKNATNKKQKSIFFGKSNVGKSSLINALLALNKIKTKLTISSYTNTTINLNKINIQEHQILDAPGVCFDENILNYVRDEDNKSIMISYGAKAINYQINPQQALMISGLVGIQYLKGQKTTFTLYVSSQLDIHRCKLENFIMNFNKRYLLAKFNYLNQDLEFVDHLITLNKDQKTNICIAGLGLLVINAHAEQICIRLPKSVGLKVAKYAII", "Property Measured": "protein production", "Observed Value": "failed"}
{"Item Sequence": "MFLVISVVGSSNIDIVLKVDHFTKPGETQKAIEMNVFPGGKGANQAVTVAKIGEKGCRFVTCIGNDDYSDLLIENYEKLGITGYIRVSLPTGRAFIEVDKTGQNRIIIFPGANAELKKELIDWNTLSESDILLLQNEIPFETTLECAKRFNGIVIFDPAPAQGINEEIFQYLDYLTPNEKEIEALSKDFFGEFLTVEKAAEKFLELGVKNVIVKLGDKGVLLVNKNEKKHFPTFKVKAVDTTAAGDVFNGAFAVALSEGKNPEEAVIFGTAAAAISVTRLGAQSSIPAREEVEAFLKNL", "Property Measured": "protein production", "Observed Value": "not failed"}

For each of the items listed, what is its protein production?
1. MKDREIFAGLSTTVPFVLRLDGRSFHRFSKDRYKKPYDKVFSDAMVKTARALVTDSGLSPSFAYTFSDEISLYVPAPVFDCRVEKLASVSAAFAASAFTLYAGASEPLAFDARVIPIEEGLFPAYLSWRQAEAWRNHMNGYAQKILQDEGVSPTNAQKQLDGMNAAALHEFAFSRGVNLALTPAWERRGICIYRDVVMRDGYNPIKDEKVSVERTIAVIDEDVPLFKSPEGTAWVLSKIRLEHHHHHH
2. MASQITGSFTSLTKLITAGSYLAGLGFSIGAIMKFKQHKDNPTQIPIGTPIALIFIAAALLFLPSILGVAGVTMFGGSGGKTAGPTGTIYKTN

["failed", "failed"]

---

assay: label from the status in PepcDB records

{"Item Sequence": "MASSYTLMLFLCLSIFLIASTEMMAVEGRICERRSKTWTGFCGNTRGCDSQCKRWERASHGACHAQGFPVSGIPSALPTVTHAKQREKMSAMGAYGITYFVGSIIGLLFVQGFEPEKGTLFKEQKGGVSKIDPKP", "protein production": "failed"}
{"Item Sequence": "MASAHTTQTPFNRLLLTGAAGGLGKVLRETLRPYSHILRLSDIAEMAPAVGDHEEVQVCDLADKDAVHRLVEGVDAILHFGGVSVERPFEEILGANICGVFHIYEAARRHGVKRVIFASSNHVIGFYKQNETIDAHSPRRPDSYYGLSKSYGEDMASFYFDRYGIETVSIRIGSSFPEPQNRRMMSTWLSFDDLTRLLERALYTPDVGHTVVYGVSDNKTVWWDNRFASKLDYAPKDSSEVFRAKVDAQPMPADDDPAMVYQGGAFVASGPFGDK", "protein production": "failed"}
{"Item Sequence": "MARYINITLEKRGVTCKALLLDDVAPRTSKAVWDALPQSSQVFHGKYARNEIYNLVPAFAPKEPGAENTTVTPIPGDVCYFTFTSNDLKTPSHGYEADSGTDEVQTIVDLAVFYGRNNLLLNGDTGWVPGNVFATIVEGLDEMAAACQDIWMGGARDETLTFSRAEDTA", "protein production": "not failed"}
{"Item Sequence": "MLMEVKALAHAKNDSVAVATDDLKEGEEIQVAFLDNNEKTKITTAEVIPLGHKISLKDIKKGENVIEYGEVIGAATKDIKRGEHVHIHNIKSLRW", "protein production": "not failed"}
